Measured values drawn from patent EP0857721A1 for this set.

System: RBL-2H3 cells
assayProtocol: Inhibition of serotonin liberation from IgE-sensitized, antigen-stimulated RBL-2H3 cells ([3H]-serotonin)
Type: cell-based
recordedConditions: Rattus norvegicus; IgE-sensitized RBL-2H3 cells stimulated with specific antigen; [3H]-labeled serotonin
Consider the following molecules; for each one, report its IC50.
Could you write the number and then its unit?

Some entries whose results are on file:
| structureString | testedOn | IC50 |
| --- | --- | --- |
| Cc1ccc2c(=O)c3ccccc3n(CCCNCc3cccc(C#N)c3)c2c1C | RBL-2H3 cells | 3 µM |
| Cc1ccc2c(=O)c3c(CC(=O)O)cccc3n(CCCNCc3ccc(Cl)c(O)c3Cl)c2c1C | RBL-2H3 cells | 8 µM |
| Cc1ccc2c(=O)c3ccccc3n(Cc3ccc(CNCc4ncc[nH]4)cc3)c2c1C | RBL-2H3 cells | 10 µM |

Please supply IC50 for each of the following items, keeping them in order.
1. Cc1ccc2c(=O)c3ccccc3n(CCCNOCc3ccccc3)c2c1C
2. Cc1ccc2c(=O)c3c(CCC(=O)O)cccc3n(CCCNCc3ccccc3)c2c1C
3. Cc1ccc2c(=O)c3ccccc3n(Cc3cccc(CN)n3)c2c1C
4. COc1ccc2c(=O)c3ccc(C)c(C)c3n(CCCNCc3ccc(C)cc3)c2c1
5. Cc1ccc2c(=O)c3ccccc3n(CCCNCc3cccc(C(F)(F)F)c3)c2c1C

2 µM
3 µM
8 µM
2 µM
2 µM

###

Test system: RBL-2H3 cells
assayProtocol: Inhibition of serotonin liberation from IgE-sensitized, antigen-stimulated RBL-2H3 cells ([3H]-serotonin)
Format: cell-based
recordedConditions: Rattus norvegicus; IgE-sensitized RBL-2H3 cells stimulated with specific antigen; [3H]-labeled serotonin
quantityMeasured: IC50

Example cases with answers are listed next.
| compound | result |
| --- | --- |
| Cc1ccc2c(=O)c3ccccc3n(Cc3cccc(CNCc4ccccc4)n3)c2c1C | 1 µM |
| Cc1ccc2c(=O)c3ccccc3n(CCCNCc3ccc(C#N)cc3)c2c1C | 2 µM |
| Cc1ccccc1CNCCCn1c2ccccc2c(=O)c2ccc(C)c(C)c21 | 1 µM |
| COC(=O)CCc1cccc2c1c(=O)c1ccc(C)c(C)c1n2CCCNCc1ccccc1 | 3 µM |
| Cc1ccc2c(=O)c3c(CC(=O)O)cccc3n(CCCNCc3cc4ccccc4o3)c2c1C | 0.5 µM |

For each listed entry, give its IC50.
1. Cc1ccc2c(=O)c3c(CC(=O)O)cccc3n(CCCNCc3cccc(Cl)c3)c2c1C
2. Cc1ccc2c(=O)c3ccccc3n(CCCNCc3ccccc3C(F)(F)F)c2c1C
3. Cc1ccc2c(=O)c3c(C(C)CC(=O)O)cccc3n(CCCNCc3ccc(Cl)cc3Cl)c2c1C (centres unmarked)
4. Cc1ccc2c(=O)c3ccccc3n(CCCNCc3ccccc3Br)c2c1C
5. Cc1ccc2c(=O)c3c(CC(=O)O)cccc3n(CCCNCc3ccc(Cl)cc3O)c2c1C

1. 10 µM
2. 1 µM
3. 10 µM
4. 5 µM
5. 2 µM

Look up IC50 for the entries below, preserving their order.
1. COc1cccc(NCCCn2c3ccccc3c(=O)c3ccc(C)c(C)c32)c1
2. Cc1ccc2c(=O)c3ccccc3n(Cc3ccc(CNCc4ccccc4)o3)c2c1C
3. Cc1ccc2c(=O)c3ccccc3n(CCCN(CCC(N)=O)Cc3ccccc3)c2c1C
4. Cc1ccc2c(=O)c3c(CC(=O)O)cccc3n(CCCN(C)CCc3ccccc3)c2c1C
5. Cc1ccc2c(=O)c3c(C(C)C(=O)O)cccc3n(CCCN(C)Cc3ccccc3)c2c1C (centres unmarked)
6. Cc1ccc2c(=O)c3ccccc3n(CCCNCc3ccc(S(=O)(=O)N(C)C)cc3)c2c1C
7. Cc1ccc2c(=O)c3c(CC(=O)O)cccc3n(CCCN)c2c1C

1. 10 µM
2. 2 µM
3. 4 µM
4. 8 µM
5. 4 µM
6. 8 µM
7. 10 µM

###

Tested on: RBL-2H3 cells
assayProtocol: Inhibition of serotonin liberation from IgE-sensitized, antigen-stimulated RBL-2H3 cells ([3H]-serotonin)
Type: cell-based
recordedConditions: Rattus norvegicus; IgE-sensitized RBL-2H3 cells stimulated with specific antigen; [3H]-labeled serotonin
quantityMeasured: log10 of IC50 (log10 of the value in µM)
Recall that a logarithmic scale is used here: each number is log10 of IC50 in µM.

Would you please look over these solved cases?
| compound | log10 of IC50 |
| --- | --- |
| Cc1ccc2c(=O)c3c(CC(=O)O)cccc3n(CCCNCc3ccccc3Cl)c2c1C | 0.70 |
| COc1c(CNCCCn2c3cccc(CC(=O)O)c3c(=O)c3ccc(C)c(C)c32)ccc(Cl)c1Cl | 0.00 |
| Cc1ccc2c(=O)c3ccccc3n(CC=CCNCc3ccccc3)c2c1C | 0.90 |
| Cc1ccc2c(=O)c3c(C(C)CC(=O)O)cccc3n(CCCN)c2c1C (centres unmarked) | 1.00 |
| Cc1ccc2c(=O)c3c(CC(=O)N(C)C)cccc3n(CCCN(C)Cc3ccccc3)c2c1C | 1.00 |

# return log10 of IC50 for each item in the list
1. CNS(=O)(=O)c1ccc(CNCCCn2c3ccccc3c(=O)c3ccc(C)c(C)c32)cc1
2. Cc1ccc2c(=O)c3c(CC(=O)O)cccc3n(CCCN(C)Cc3ccccc3)c2c1C

1: 0.85; 2: 0.48

Working through the 5 compounds below one at a time, give log10 of IC50 for each.
1. Cc1ccc2c(=O)c3c(C(C)C(=O)O)cccc3n(CCCNCc3ccccc3)c2c1C (centres unmarked)
2. Cc1ccc2c(=O)c3ccccc3n(CCCNCc3ccc(Cl)cc3Cl)c2c1C
3. Cc1cc(CN(C)CCCn2c3ccccc3c(=O)c3ccc(C)c(C)c32)cc(C)c1O
4. Cc1ccc2c(=O)c3c(CC(=O)O)cccc3n(CCCNCc3ccc(C(F)(F)F)cc3C(F)(F)F)c2c1C
5. Cc1ccc2c(=O)c3ccccc3n(CCCNCc3cccc(Br)c3)c2c1C

[0.00, 0.00, 0.85, 0.90, 0.30]

Would you be so kind as to report log10 of IC50 for each listed record?
1. Cc1ccc2c(=O)c3c(CC(=O)O)cccc3n(CCCNCc3ccc(F)cc3F)c2c1C
2. Cc1ccc2c(=O)c3ccccc3n(CCCNCc3cccc(F)c3)c2c1C
3. Cc1ccc2c(=O)c3ccccc3n(CCCNc3cccc(-c4nnn[nH]4)c3)c2c1C
4. Cc1ccc2c(=S)c3ccccc3n(CCCNCc3ccccc3)c2c1C
5. Cc1ccc(CNCCCn2c3cccc(CC(=O)O)c3c(=O)c3ccc(C)c(C)c32)c(C)c1

1. 1.00
2. 0.30
3. 1.04
4. 1.00
5. 1.00

###

Test system: RBL-2H3 cells
assayProtocol: Inhibition of serotonin liberation from IgE-sensitized, antigen-stimulated RBL-2H3 cells ([3H]-serotonin)
Type: cell-based
recordedConditions: Rattus norvegicus; IgE-sensitized RBL-2H3 cells stimulated with specific antigen; [3H]-labeled serotonin
Would you kindly list IC50 for each of these compounds?
Give bare numbers, in µM.

# count of solved cases: 7
| compound | testedOn | readoutUnits | IC50 |
| --- | --- | --- | --- |
| CNC(=O)Cc1cccc2c1c(=O)c1ccc(C)c(C)c1n2CCCN(C)Cc1ccccc1 | RBL-2H3 cells | µM | 2 |
| Cc1ccc2c(=O)c3c(CC(=O)O)cccc3n(CCCNCc3ccc(F)c(F)c3)c2c1C | RBL-2H3 cells | µM | 3 |
| Cc1ccc2c(=O)c3c(C(C)C(=O)O)cccc3n(CCCNCc3ccc(Cl)c(Cl)c3)c2c1C (centres unmarked) | RBL-2H3 cells | µM | 1 |
| Cc1ccc(CN(C)CCCn2c3cccc(CC(=O)O)c3c(=O)c3ccc(C)c(C)c32)cc1 | RBL-2H3 cells | µM | 10 |
| Cc1ccc2c(=O)c3ccccc3n(CCCN(CCO)Cc3ccccc3)c2c1C | RBL-2H3 cells | µM | 1 |
| Cc1ccc2c(=O)c3c(CC(=O)O)cccc3n(CCCNCc3cccc(F)c3)c2c1C | RBL-2H3 cells | µM | 5 |
| Cc1ccc(CNCCCn2c3ccccc3c(=O)c3ccc(C)c(C)c32)cc1 | RBL-2H3 cells | µM | 1 |

Alright, here's another compound for you.
Determine its reported IC50: `Cc1cccc(CNCCCn2c3ccccc3c(=O)c3ccc(C)c(C)c32)c1`
2

###

For each of the compounds below, state its IC50.
Test system: RBL-2H3 cells
assayProtocol: Inhibition of serotonin liberation from IgE-sensitized, antigen-stimulated RBL-2H3 cells ([3H]-serotonin)
Format: cell-based
recordedConditions: Rattus norvegicus; IgE-sensitized RBL-2H3 cells stimulated with specific antigen; [3H]-labeled serotonin

Worked set:
| structureString | result |
| --- | --- |
| Cc1ccc2c(=O)c3ccccc3n(CCCNCc3cccc(Cl)c3)c2c1C | 5 µM |
| Cc1ccc2c(=O)c3ccccc3n(CCCN(C3CCCCC3)C3CCCCC3)c2c1C | 5 µM |

Turning now to a further record.
Give IC50 only, for `Cc1ccc2c(=O)c3ccccc3n(CCCNCc3ccc(Br)cc3)c2c1C` , using RBL-2H3 cells data.
5 µM
